Molecular target: PI3K-gamma (Homo sapiens)
Sequence (P48736 whole entry, species assumed): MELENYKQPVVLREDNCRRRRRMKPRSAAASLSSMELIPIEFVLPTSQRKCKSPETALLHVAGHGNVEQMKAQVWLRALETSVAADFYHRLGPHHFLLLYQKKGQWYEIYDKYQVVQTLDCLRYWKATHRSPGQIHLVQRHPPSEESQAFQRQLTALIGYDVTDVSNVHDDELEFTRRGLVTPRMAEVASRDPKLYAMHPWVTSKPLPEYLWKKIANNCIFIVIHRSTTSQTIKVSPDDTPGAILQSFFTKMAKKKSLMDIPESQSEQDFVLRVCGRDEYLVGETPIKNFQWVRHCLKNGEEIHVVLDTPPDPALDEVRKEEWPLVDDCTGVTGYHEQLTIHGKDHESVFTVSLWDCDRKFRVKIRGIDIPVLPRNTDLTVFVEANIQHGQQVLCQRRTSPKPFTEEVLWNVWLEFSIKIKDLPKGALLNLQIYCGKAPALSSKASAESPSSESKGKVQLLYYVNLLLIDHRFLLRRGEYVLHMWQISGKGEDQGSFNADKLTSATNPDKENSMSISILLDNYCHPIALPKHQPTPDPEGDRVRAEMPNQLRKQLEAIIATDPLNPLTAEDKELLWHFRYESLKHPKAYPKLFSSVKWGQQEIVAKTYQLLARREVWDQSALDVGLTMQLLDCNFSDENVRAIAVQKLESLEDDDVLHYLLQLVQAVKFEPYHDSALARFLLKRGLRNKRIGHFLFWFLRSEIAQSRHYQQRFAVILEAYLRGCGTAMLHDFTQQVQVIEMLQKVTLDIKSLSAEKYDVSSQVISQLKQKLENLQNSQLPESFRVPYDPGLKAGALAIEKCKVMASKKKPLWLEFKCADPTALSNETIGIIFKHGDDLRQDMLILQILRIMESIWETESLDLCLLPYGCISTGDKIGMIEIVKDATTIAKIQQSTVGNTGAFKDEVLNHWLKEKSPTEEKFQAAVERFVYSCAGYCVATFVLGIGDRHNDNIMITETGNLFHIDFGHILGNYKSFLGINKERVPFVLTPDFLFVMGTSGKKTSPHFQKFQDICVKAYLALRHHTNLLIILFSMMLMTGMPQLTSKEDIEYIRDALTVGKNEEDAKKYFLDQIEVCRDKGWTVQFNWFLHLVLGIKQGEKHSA
Reported Endpoint: pIC50
# pIC50 is unitless: minus log10 of the molar concentration; print number only

Input: Recall the recorded pIC50 for `O=C(Nc1ccc(-c2nc(N3C4CCC3COC4)cc(N3C4CCC3COC4)n2)cc1)Nc1cccnc1` with PI3K-gamma (Homo sapiens) and state it.
Output: 5.35

Input: Recall the recorded pIC50 for `C[C@@H]1CN(c2cc(N3C4CCC3COC4)nc(-c3ccc(NC(=O)Nc4ccc(N5CCN(C)CC5)cc4)cc3)n2)C[C@H](C)O1` with PI3K-gamma (Homo sapiens) and state it.
Output: 5.19

Input: Recall the recorded pIC50 for `CC(C)Nc1cc(N2C3CCC2COC3)nc(-c2ccc(NC(=O)Nc3ccc(CN4CCCC4)cc3)cc2)n1` with PI3K-gamma (Homo sapiens) and state it.
Output: 5.45

Input: Recall the recorded pIC50 for `O=C(Nc1ccc(-c2nc(N3C4CCC3COC4)c(Cl)c(N3C4CCC3COC4)n2)cc1)Nc1cccnc1` with PI3K-gamma (Homo sapiens) and state it.
Output: 6.03

Input: Recall the recorded pIC50 for `CS(=O)(=O)CCNc1cc(N2C3CCC2COC3)nc(-c2ccc(NC(=O)Nc3ccncc3)cc2)n1` with PI3K-gamma (Homo sapiens) and state it.
Output: 4.97

Input: Recall the recorded pIC50 for `CN(C)CCOc1ccc(NC(=O)Nc2ccc(-c3nc(NC4CCOCC4)cc(N4C5CCC4COC5)n3)cc2)cc1` with PI3K-gamma (Homo sapiens) and state it.
Output: 5.34

Input: Recall the recorded pIC50 for `CCNC(=O)Nc1ccc(-c2nc(CN(C)C)cc(N3C4CCC3COC4)n2)cc1` with PI3K-gamma (Homo sapiens) and state it.
Output: 4.90

###

Listing: pIC50 of selected compounds
Target: PI3K-gamma (Homo sapiens)
# pIC50 is unitless: minus log10 of the molar concentration; print number only

- Chem Smiles: "CC(C)Nc1cc(N2C3COCC2COC3)nc(-c2ccc(NC(=O)Nc3ccc(CN4CCN(C)CC4)cc3)cc2)n1"
  pIC50: 5.16
- Chem Smiles: "C[C@@H]1CN(c2cc(N3C4CCC3COC4)nc(-c3ccc(NC(=O)Nc4ccc(N5CCN(C)CC5)nc4)cc3)n2)C[C@H](C)O1"
  pIC50: 4.82
- Chem Smiles: "CN1CCN(c2ccc(NC(=O)Nc3ccc(-c4nc(NC5CCOCC5)cc(N5C6CCC5COC6)n4)cc3)cc2)CC1"
  pIC50: 5.03
- Chem Smiles: "O=C(Nc1ccncc1)Nc1ccc(-c2nc(N3C4CCC3COC4)cc(N3C[C@H]4C[C@@H]3CO4)n2)cc1"
  pIC50: 5.13
- Chem Smiles: "CN1CCN(c2ccc(NC(=O)Nc3ccc(-c4nc(N5C6CCC5COC6)c(Cl)c(N5C6CCC5COC6)n4)cc3)cc2)CC1"
  pIC50: 5.99

Input: Recall the recorded pIC50 for `CN(C)CCOc1ccc(NC(=O)Nc2ccc(-c3nc(C4CCOCC4)cc(N4C5CCC4COC5)n3)cc2)cc1` with PI3K-gamma (Homo sapiens) and state it.
Output: 5.14

Input: Recall the recorded pIC50 for `CC(C)Nc1cc(N2C3COCC2COC3)nc(-c2ccc(NC(=O)Nc3ccncc3)cc2)n1` with PI3K-gamma (Homo sapiens) and state it.
Output: 5.03

Input: Recall the recorded pIC50 for `CN1CCN(c2ccc(NC(=O)Nc3ccc(-c4nc(C5CCOCC5)cc(N5C6CCC5COC6)n4)cc3)cc2)CC1` with PI3K-gamma (Homo sapiens) and state it.
Output: 5.33

Input: Recall the recorded pIC50 for `CC(C)N1CCN(C(=O)c2ccc(NC(=O)Nc3ccc(-c4nc(C5CCOCC5)cc(N5C6CCC5COC6)n4)cc3)cc2)CC1` with PI3K-gamma (Homo sapiens) and state it.
Output: 5.49

Input: Recall the recorded pIC50 for `C[C@@H]1CN(c2cc(N3C4CCC3COC4)nc(-c3ccc(NC(=O)Nc4ccc(C(=O)N5CCN(C)CC5)cc4)cc3)n2)C[C@H](C)O1` with PI3K-gamma (Homo sapiens) and state it.
Output: 5.99

Input: Recall the recorded pIC50 for `C[C@@H]1COCCN1c1cc(N2C3CCC2COC3)nc(-c2ccc(NC(=O)Nc3cccnc3)cc2)n1` with PI3K-gamma (Homo sapiens) and state it.
Output: 5.13

Input: Recall the recorded pIC50 for `CC(C)Nc1cc(N2C3CCC2COC3)nc(-c2ccc(NC(=O)Nc3ccc(OCCN4CCCC4)cc3)cc2)n1` with PI3K-gamma (Homo sapiens) and state it.
Output: 5.32

Input: Recall the recorded pIC50 for `CN1CCN(Cc2ccc(NC(=O)Nc3ccc(-c4nc(N5C6CCC5COC6)cc(N5C[C@H]6C[C@@H]5CO6)n4)cc3)cc2)CC1` with PI3K-gamma (Homo sapiens) and state it.
Output: 5.12

Input: Recall the recorded pIC50 for `C[C@@H]1COCCN1c1cc(N2C3CCC2COC3)nc(-c2ccc(NC(=O)Nc3ccncc3)cc2)n1` with PI3K-gamma (Homo sapiens) and state it.
Output: 6.11

###

Molecular target: UniProtKB P42345
Assay: mTOR enzyme assay (DELFIA, purified FLAG-TOR, His6-S6K substrate)
Format: biochemical
Set-up: FLAG
Details: 100 μM ATP, 2 hours
Listing: pIC50 of selected compounds
# pIC50 is unitless: minus log10 of the molar concentration; print number only

Input: What value of pIC50 has been recorded for this entry: `CC(C)Nc1cc(N2C3CCC2COC3)nc(-c2ccc(NC(=O)Nc3ccc(N4CCN(C)CC4)nc3)cc2)n1`
Output: 8.38

Input: What value of pIC50 has been recorded for this entry: `CNC(=O)Nc1ccc(-c2nc(CS(C)(=O)=O)cc(N3CC4CCC(C3)O4)n2)cc1`
Output: 7.87

Input: What value of pIC50 has been recorded for this entry: `O=C(Nc1ccc(-c2cc(N3CC4CCC(C3)O4)nc(-c3ccc(NC(=O)Nc4cccnc4)cc3)n2)cc1)Nc1cccnc1`
Output: 8.55

Input: What value of pIC50 has been recorded for this entry: `CN(Cc1ccc(NC(=O)Nc2ccc(-c3nc(CS(C)(=O)=O)cc(N4CC5CCC(C4)O5)n3)cc2)cc1)C(=O)OC(C)(C)C`
Output: 7.52

###

Values of log10(IC50) reported for PI3K-alpha (Homo sapiens, UniProt P42336) appear below.
All values: log10 IC50 [nM].

- Chem Smiles: "CN1CCN(c2ccc(NC(=O)Nc3ccc(-c4cc(N5CC6CCC(C5)O6)nc(N5CC6CCC(C5)O6)n4)cc3)cc2)CC1"
  Reported Endpoint: "log10(IC50)"
  Experimental Result: 2.77
- Chem Smiles: "CC(C)Nc1cc(N2C3CCC2COC3)nc(-c2ccc(NC(=O)Nc3ccc(OCCN(C)C)cc3)cc2)n1"
  Reported Endpoint: "log10(IC50)"
  Experimental Result: 3.38

Input: Recall the recorded log10(IC50) for `C[C@@H]1CN(c2cc(N3C4CCC3COC4)nc(-c3ccc(NC(=O)Nc4ccc(N5CCN(C)CC5)cc4)cc3)n2)C[C@H](C)O1` with PI3K-alpha (Homo sapiens, UniProt P42336) and state it.
Sequence (P42336 whole entry, species assumed): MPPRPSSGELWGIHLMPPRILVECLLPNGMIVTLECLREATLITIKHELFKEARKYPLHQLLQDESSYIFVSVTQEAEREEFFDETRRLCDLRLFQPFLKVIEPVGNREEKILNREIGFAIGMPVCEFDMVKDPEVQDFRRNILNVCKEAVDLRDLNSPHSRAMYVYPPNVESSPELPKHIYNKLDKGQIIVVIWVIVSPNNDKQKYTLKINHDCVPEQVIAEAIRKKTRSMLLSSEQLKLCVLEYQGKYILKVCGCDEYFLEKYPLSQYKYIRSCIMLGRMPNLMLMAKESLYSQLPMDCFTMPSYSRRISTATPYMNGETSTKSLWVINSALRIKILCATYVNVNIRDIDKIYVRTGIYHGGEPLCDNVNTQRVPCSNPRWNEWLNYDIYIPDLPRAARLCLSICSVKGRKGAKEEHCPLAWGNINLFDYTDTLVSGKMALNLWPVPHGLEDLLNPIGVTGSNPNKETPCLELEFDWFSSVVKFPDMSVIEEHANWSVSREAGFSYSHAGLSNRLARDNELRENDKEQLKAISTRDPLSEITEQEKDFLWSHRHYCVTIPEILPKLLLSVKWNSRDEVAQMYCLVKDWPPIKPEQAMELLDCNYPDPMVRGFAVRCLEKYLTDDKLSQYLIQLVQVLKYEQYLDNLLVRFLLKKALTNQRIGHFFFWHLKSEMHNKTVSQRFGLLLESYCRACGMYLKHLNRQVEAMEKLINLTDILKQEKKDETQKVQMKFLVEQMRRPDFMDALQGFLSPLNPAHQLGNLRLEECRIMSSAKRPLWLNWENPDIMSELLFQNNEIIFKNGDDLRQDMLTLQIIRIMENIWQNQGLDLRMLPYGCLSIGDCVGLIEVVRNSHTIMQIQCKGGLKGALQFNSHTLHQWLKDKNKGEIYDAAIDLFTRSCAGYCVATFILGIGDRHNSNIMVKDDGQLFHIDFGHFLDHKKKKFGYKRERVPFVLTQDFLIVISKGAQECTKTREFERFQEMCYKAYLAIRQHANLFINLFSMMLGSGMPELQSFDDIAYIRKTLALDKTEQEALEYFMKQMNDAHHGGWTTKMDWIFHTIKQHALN
Sequence (P27986 whole entry partner, species assumed): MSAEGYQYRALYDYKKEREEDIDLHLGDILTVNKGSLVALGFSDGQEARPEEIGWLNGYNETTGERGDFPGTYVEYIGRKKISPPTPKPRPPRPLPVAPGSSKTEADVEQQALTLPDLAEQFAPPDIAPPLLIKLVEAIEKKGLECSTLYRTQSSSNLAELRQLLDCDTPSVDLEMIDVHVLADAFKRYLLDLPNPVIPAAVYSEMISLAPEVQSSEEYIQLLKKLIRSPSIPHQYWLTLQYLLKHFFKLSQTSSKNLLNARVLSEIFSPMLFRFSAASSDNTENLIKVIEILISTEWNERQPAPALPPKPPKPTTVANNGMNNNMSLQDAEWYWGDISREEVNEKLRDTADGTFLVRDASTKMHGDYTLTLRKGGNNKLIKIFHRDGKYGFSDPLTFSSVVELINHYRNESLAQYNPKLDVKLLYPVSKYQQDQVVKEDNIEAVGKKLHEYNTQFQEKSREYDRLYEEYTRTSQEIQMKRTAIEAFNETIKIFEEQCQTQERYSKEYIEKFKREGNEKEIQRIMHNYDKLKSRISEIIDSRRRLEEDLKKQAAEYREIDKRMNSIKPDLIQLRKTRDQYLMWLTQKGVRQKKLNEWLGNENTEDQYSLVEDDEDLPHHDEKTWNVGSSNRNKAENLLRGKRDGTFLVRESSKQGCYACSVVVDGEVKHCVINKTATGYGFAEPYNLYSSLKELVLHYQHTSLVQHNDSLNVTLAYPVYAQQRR
Output: 3.19

Input: Recall the recorded log10(IC50) for `CC(C)Nc1cc(N2C3COCC2COC3)nc(-c2ccc(NC(=O)Nc3ccncc3)cc2)n1` with PI3K-alpha (Homo sapiens, UniProt P42336) and state it.
Output: 3.18

Input: Recall the recorded log10(IC50) for `CC(C)Nc1cc(N2C3CCC2COC3)nc(-c2ccc(NC(=O)Nc3ccc(CN4CCN(C)CC4)cc3)cc2)n1` with PI3K-alpha (Homo sapiens, UniProt P42336) and state it.
Output: 3.53

Input: Recall the recorded log10(IC50) for `CC(C)Nc1cc(N2C3COCC2COC3)nc(-c2ccc(NC(=O)Nc3ccc(N4CCN(C)CC4)cc3)cc2)n1` with PI3K-alpha (Homo sapiens, UniProt P42336) and state it.
Output: 3.18

###

Molecular target: mTOR (Homo sapiens, UniProt P42345)
Sequence (P42345 1360-2549 limits assumed): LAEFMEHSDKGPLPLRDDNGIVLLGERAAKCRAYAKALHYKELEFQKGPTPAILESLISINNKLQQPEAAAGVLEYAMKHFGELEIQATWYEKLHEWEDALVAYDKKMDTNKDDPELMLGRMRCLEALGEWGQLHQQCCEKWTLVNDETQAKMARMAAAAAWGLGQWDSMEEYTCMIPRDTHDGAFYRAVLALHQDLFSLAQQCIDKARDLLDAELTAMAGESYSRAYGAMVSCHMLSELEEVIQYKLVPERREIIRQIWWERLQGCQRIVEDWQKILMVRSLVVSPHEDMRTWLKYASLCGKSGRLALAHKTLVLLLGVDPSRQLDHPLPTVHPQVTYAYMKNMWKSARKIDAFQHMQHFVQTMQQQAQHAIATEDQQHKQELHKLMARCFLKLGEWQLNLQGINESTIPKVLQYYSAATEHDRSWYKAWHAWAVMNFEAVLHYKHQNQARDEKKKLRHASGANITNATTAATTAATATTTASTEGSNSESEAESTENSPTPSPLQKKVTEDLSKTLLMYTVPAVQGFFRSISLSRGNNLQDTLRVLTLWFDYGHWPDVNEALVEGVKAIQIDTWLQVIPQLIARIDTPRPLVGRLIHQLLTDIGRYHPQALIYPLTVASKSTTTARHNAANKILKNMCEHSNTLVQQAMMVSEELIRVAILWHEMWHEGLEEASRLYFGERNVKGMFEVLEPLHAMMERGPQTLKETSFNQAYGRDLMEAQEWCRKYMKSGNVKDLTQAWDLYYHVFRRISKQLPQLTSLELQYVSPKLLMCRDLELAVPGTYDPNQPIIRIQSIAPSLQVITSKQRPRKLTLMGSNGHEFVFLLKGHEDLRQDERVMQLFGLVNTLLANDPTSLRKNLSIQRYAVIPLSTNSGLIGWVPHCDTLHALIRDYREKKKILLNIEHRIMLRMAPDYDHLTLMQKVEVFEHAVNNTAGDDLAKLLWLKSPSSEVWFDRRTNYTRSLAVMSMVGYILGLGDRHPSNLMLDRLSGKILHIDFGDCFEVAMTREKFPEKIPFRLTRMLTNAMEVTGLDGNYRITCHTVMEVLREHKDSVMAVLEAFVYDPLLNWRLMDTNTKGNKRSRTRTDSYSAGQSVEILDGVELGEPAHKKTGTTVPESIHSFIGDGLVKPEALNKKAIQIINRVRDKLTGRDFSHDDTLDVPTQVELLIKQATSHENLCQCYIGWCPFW
Assay: mTOR enzyme assay (DELFIA, purified FLAG-TOR, His6-S6K substrate)
Assay type: biochemical
Set-up: FLAG
Settings: 100 μM ATP, 2 hours
pIC50: −log10 of the molar value.
Lab note: anything with pIC50 at or over 8 counts as label 1; the rest go in label 0.

Please review the following examples before continuing.
- Chem Smiles: "CC(C)Nc1cc(N2C3CCC2COC3)nc(-c2ccc(NC(=O)Nc3ccc(OCCN4CCCC4)cc3)cc2)n1"
  Qualitative Label: "label 1"
- Chem Smiles: "CS(=O)(=O)Cc1cc(N2CC3CCC(C2)O3)nc(-c2ccc(NC(=O)Nc3ccccc3)cc2)n1"
  Qualitative Label: "label 1"
- Chem Smiles: "CC(C)Nc1cc(N2C3CCC2COC3)nc(-c2ccc(NC(=O)Nc3ccc(OCCN(C)C)cc3)cc2)n1"
  Qualitative Label: "label 1"

Input: In plain terms: is recorded pIC50 at least 8 for `CC(C)Nc1cc(N2C3COCC2COC3)nc(-c2ccc(NC(=O)Nc3ccc(CN4CCN(C)CC4)cc3)cc2)n1` ?
Output: label 0

Input: In plain terms: is recorded pIC50 at least 8 for `O=C(Nc1ccc(-c2nc(NC3CCOCC3)cc(N3C4CCC3COC4)n2)cc1)Nc1cccnc1` ?
Output: label 1
